# test method notes: inhibitors of PGC1a acetylation signal, primary screen, cell-based, U2OS, AlphaScreen, inhibitor mode (AID 651687);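 further: 0% = neutral control wells and 100% = positive control wells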
# condition parameters: AlphaScreen anti-acetyl-lysine, at 15.6 µM, active compounds read high, with virally co-expressed GCN5 acetyltransferase
Screen size: about 350,000 compounds; about 600 (0.17%) were called active. For the sample, actives were picked, then their nearest neighbours and some compounds at random.
observation type: inhibition (%)
Numbers only, in %.

* Clc1ccc(C[n+]2cc(-c3ccccc3)n3c2CCC3)cc1 | -17.2
* COc1ccc(NC(=O)N2CC[C@@H]3[C@@H](CO)N(C)c4ccc(-c5cccc(F)c5)cc4[C@@H]32)cc1 | 10.2
* CC(C)NC(=O)Nc1ccc2c(c1)C(=O)N([C@@H](C)CO)C[C@@H](C)[C@@H](CN(C)S(=O)(=O)c1ccc(F)cc1)OCCCC[C@H](C)O2 | -0.972
* CN1/C(=C\C=C2\N=C(c3ccc(F)cc3)OC2=O)C(C)(C)c2ccccc21 | -0.203
* COc1ccc(C#Cc2ccc([C@H]3[C@@H](CO)N4CCCCN(S(=O)(=O)c5cn(C)cn5)C[C@H]34)cc2)cc1 | -2.67
* CC(C)NC(=O)Nc1ccc2c(c1)C(=O)N([C@@H](C)CO)C[C@H](C)[C@H](CN(C)S(=O)(=O)c1ccc(Cl)cc1)OCCCC[C@H](C)O2 | -18.6

Hello, I would appreciate it if you could give inhibition for each entry below.
1. CO[C@H]1CN(C)C(=O)c2cc(NC(=O)c3nc4ccccc4s3)ccc2OC[C@H](C)N(Cc2cccnc2)C[C@@H]1C
2. Cc1ccc(-c2c[n+](CC(=O)Nc3ccccc3)c3n2CCC3)cc1
3. O=C(c1ccncc1)N1CC2(C1)[C@@H](c1ccccc1)[C@H](CO)N2C(=O)c1ccncc1

### Response
7.17
43.3
6.1

Hello, I would appreciate it if you could give inhibition for each entry below.
1. COc1ccccc1C#Cc1cnc2c(c1)C(=O)N([C@@H](C)CO)C[C@@H](C)[C@H](CN(C)C(=O)CN(C)C)O2
2. C[C@@H](O)C#Cc1ccc([C@H]2[C@H](CO)N3CCCCN(C(=O)c4ccc(F)cc4)C[C@@H]23)cc1
3. CN1/C(=C\C(=O)c2oc3ccccc3c2N)C(C)(C)c2ccccc21
4. CC(C)NC(=O)Nc1ccc2c(c1)C(=O)N([C@H](C)CO)C[C@H](C)[C@@H](CN(C)Cc1ccc3c(c1)OCO3)OCCCC[C@H](C)O2
5. CO[C@@H]1CN(C)C(=O)c2ccc(NC(=O)c3ccccn3)cc2OC[C@@H](C)N(C(=O)C2CCCCC2)C[C@H]1C
6. O=C(CC(F)(F)F)N1C[C@H]2[C@@H](c3ccccc31)[C@H](CO)N2C(=O)Cc1cccnc1
7. C[C@H]1CN([C@@H](C)CO)C(=O)c2cc(NC(=O)Nc3ccccc3)ccc2O[C@H]1CN(C)S(C)(=O)=O

### Response
1. -1.48
2. -2.34
3. 86.9
4. 4.63
5. -2.25
6. 0.596
7. -6.24

====

# test method notes: inhibitors of PGC1a acetylation signal, primary screen, cell-based, U2OS, AlphaScreen, inhibitor mode (AID 651687);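 further: 0% = neutral control wells and 100% = positive control wells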
# condition parameters: AlphaScreen anti-acetyl-lysine, at 15.6 µM, active compounds read high, with virally co-expressed GCN5 acetyltransferase
Hit rate of the full screen: of about 350,000 compounds, about 600 (0.17%) were called active. For the sample, actives were picked, then their nearest neighbours and some compounds at random.
observation type: inhibition (%)
Numbers only, in %.

Here is how some compounds turned out for inhibition.
- Cc1noc(C)c1NC(=O)Nc1ccc2c(c1)CC(=O)N([C@@H](C)CO)C[C@@H](C)[C@H](CN(C)C(=O)NC1CCCCC1)O2: 0.249
- COC(=O)C[C@H]1CC[C@@H]2[C@@H](COc3ccc(NC(=O)Nc4ccc(Cl)cc4)cc3C(=O)N2C)O1: -4.91
- CCCN1C[C@@H](C)[C@@H](OC)CN(C)C(=O)c2cc(NC(=O)C3CCC3)ccc2OC[C@H]1C: -10.1

Hello, I would appreciate it if you could give inhibition for each entry below.
1. Cc1ccccc1-c1ccc([C@H]2[C@@H](CO)N3C(=O)CN(C(=O)c4ccncc4)C[C@H]23)cc1
2. C[C@@H]1CN([C@@H](C)CO)C(=O)c2cc(/C=C/c3ccccc3)cnc2O[C@H]1CN(C)C(=O)Nc1ccc(C(F)(F)F)cc1
3. O=C(C[C@@H]1CC[C@@H](NS(=O)(=O)c2ccccc2)[C@H](CO)O1)NCc1ccc(Cl)c(Cl)c1
4. C/C=C/c1ccc([C@H]2[C@H]3CN(S(=O)(=O)c4ccccc4)CCCCN3[C@H]2CO)cc1
5. Cc1noc(C)c1S(=O)(=O)Nc1ccc2c(c1)CC(=O)N([C@@H](C)CO)C[C@H](C)[C@H](CN(C)S(=O)(=O)c1ccc(Cl)cc1)O2
6. C[C@@H](NC(=O)C[C@H]1CC[C@H]2[C@@H](COC[C@@H](O)CN2C(=O)Nc2ccccc2)O1)c1ccccc1

### Response
-5.89
-1.88
-0.169
-5.04
10.3
6.72

Hello, I would appreciate it if you could give inhibition for each entry below.
1. CN1C(=O)c2cc(NC(=O)C3CCOCC3)ccc2OC[C@@H]2O[C@@H](CC(=O)NCC3CC3)CC[C@@H]21
2. Cc1ccc(S(=O)(=O)N(C)C[C@H]2OCCCC[C@@H](C)Oc3ccc(NC(=O)Nc4ccc(F)cc4)cc3C(=O)N([C@@H](C)CO)C[C@H]2C)cc1

### Response
[4.15, -6.65]

Hello, I would appreciate it if you could give inhibition for each entry below.
1. C[C@@H]1CN([C@H](C)CO)S(=O)(=O)c2ccc(C#CC3CCCC3)cc2O[C@@H]1CN(C)Cc1cccnc1
2. COc1ccc(NC(=O)Nc2ccc3c(c2)C(=O)N([C@@H](C)CO)C[C@H](C)[C@@H](CN(C)S(=O)(=O)c2ccc(Cl)cc2)O3)cc1
3. C[C@@H]1CCCCO[C@@H](CN(C)C(=O)C2CCCCC2)[C@H](C)CN([C@H](C)CO)C(=O)c2cc(NC(=O)c3ccccc3)ccc2O1
4. O=C(C[C@@H]1CC[C@H](NC(=O)CN2CCOCC2)[C@@H](CO)O1)NCCc1ccccc1

### Response
-39.6
-2.11
-4.75
-5.55
